# System: P12-Ichikawa
# Assay: cell viability relative to DMSO control; higher = less cytotoxic
# Setup conditions: HPLM + 10% dialyzed FBS; 48 h; 0.00702 µM
Quantity name: cell viability (%)
Note: unit % is implicit; provide only the numeric part.

COC1=C2OC(=O)\C=C/C2=CC3=C1OC=C3 115
FC(F)c1nc2ccccc2n1-c1nc(N2CCOCC2)nc(N2CCOCC2)n1 107
CO[C@@H]1COCC[C@@H]1N[C@@H]1CC[C@@](C(=O)N2CCc3ncc(C(F)(F)F)cc3C2)(C(C)C)C1 123
OC1=CC2=C(C(=C1)O)C(=O)\C=C(/O2)C3=CC=CC=C3 105
COCCCN1CCC(NC(=O)c2cc(Cl)c(N)c3c2OCC3)CC1 127

Field: next compound
query: Hello, please tell me recorded cell viability for this one: C[C@@H]1[C@H](O)[C@@H](C)/C=C/C=C/C=C/C=C/C=C/C=C/C=C/[C@H](O[C@@H]2O[C@H](C)[C@@H](O)[C@H](N)[C@@H]2O)C[C@@H]2O[C@](O)(C[C@@H](O)C[C@@H](O)[C@H](O)CC[C@@H](O)C[C@@H](O)CC(=O)O[C@H]1C)C[C@H](O)[C@H]2C(=O)O
result: 117

====

# System: P12-Ichikawa
# Assay: cell viability relative to DMSO control; higher = less cytotoxic
# Setup conditions: RPMI 5 mM glucose + 10% FBS; 48 h; 46.1 µM
Please assign -1 whenever cell viability is at or above 80%, and 1 whenever it is below.

query: Bench note: check whether COC1=C2OC(=O)\C=C/C2=CC3=C1OC=C3 shows cell viability below 80%
result: -1

query: Find out if reported cell viability for O=C1c2c(O)ccc(O)c2C(=O)c2c(NCCNCCO)ccc(NCCNCCO)c21 is less than 80%
result: 1

query: Below 80% on cell viability? Entry COc1ncc(-c2ccc3nccc(-c4ccnnc4)c3c2)cc1N[S+](=O)([O-])c1ccc(F)cc1F
result: 1

query: Regarding CC/1=C(/N2[C@H](SC1)[C@H](NC(=O)[C@H](N)\C3=C\C\C=C/C3)C2=O)C(O)=O , kindly confirm whether its cell viability is beneath 80%.
result: -1

query: Check if cell viability falls below 80% for CCC(C)(Oc1ccc(C2(c3ccc(OC(C)(CC)C(=O)O)cc3)CCCCC2)cc1)C(=O)O (stereo not drawn) .
result: -1

query: Answer whether the compound Cc1ccc([S+](=O)([O-])N[C@@H](Cc2ccccc2)C(=O)CCl)cc1 has cell viability strictly less than 80%
result: 1

====

# Tested on: SEM cells
# Assay: cell viability relative to DMSO control; higher = less cytotoxic
# Setup conditions: RPMI 5 mM glucose + 10% FBS; 48 h; 5.12 µM
Reported values of cell viability for individual entries
Supply the numeric figure in %, leaving out any unit text.

Molecule	Units symbol	cell viability
Cc1cc2c(F)c(Oc3ncnn4cc(OC[C@@H](C)O)c(C)c34)ccc2[nH]1	%	77.6
C\C1=C(\C=C(C#N)/C(=O)N1)C2=C[N]3C=CN=C3C=C2	%	102
CC(C)(C)c1[nH]cnc1/C=c1\[nH]c(=O)/c(=C/c2ccccc2)[nH]c1=O	%	3.51
O=C(Nc1ccccc1-c1cn2c(CN3CCNCC3)csc2n1)c1cnc2ccccc2n1	%	54.3

query: For C=CC(=O)N1CCC[C@@H](n2nc(-c3ccc(Oc4ccccc4)cc3)c3c(N)ncnc32)C1 , write its cell viability.
result: 103

The origin of these recorded values is the supplement of paper PMC11451515.
